# Tested on: lambsquarters (Chenopodium album, CHEAL)
# Test protocol: Post-emerge greenhouse herbicide activity screening, phytotoxicity rating
# Assay type: in vivo
# Measurement setup: 125 g ai/ha, 14 days after application
# key: entry, value: CHEAL phytotoxicity rating (0-100 scale)

- Molecule: "Cn1c(=S)n(C)c(=O)n(-c2cc(Oc3ccccc3[N+](=O)[O-])c(Cl)cc2F)c1=O [Compound 2-17]"
  Result: 95
- Molecule: "COc1ccccc1Oc1cc(-n2c(=O)cc(C(F)(F)F)n(C)c2=S)c(F)cc1C#N [Compound 1-71]"
  Result: 100

With those in mind, consider the next molecule.
stdin: Assign CHEAL phytotoxicity rating (0-100 scale) to the following record: Cn1c(C(F)(F)F)cc(=O)n(-c2cc(Oc3ncccn3)c(Cl)cc2F)c1=S [Compound 1-1]
stdout: 100

* * *

# System: large crabgrass (Digitaria sanguinalis, DIGSA)
# Test protocol: Post-emerge greenhouse herbicide activity screening, phytotoxicity rating
# Type: in vivo
# Measurement setup: 125 g ai/ha, 14 days after application
List of DIGSA phytotoxicity rating (0-100 scale) values.
// no unit, no text: just the number

stdin: Read the entry COc1ccccc1Oc1cc(-n2c(=O)cc(C(F)(F)F)n(C)c2=S)c(F)cc1C#N and write its reported DIGSA phytotoxicity rating (0-100 scale).
stdout: 50

stdin: Supply measured DIGSA phytotoxicity rating (0-100 scale) of Fc1cc(Cl)c(Oc2ncccn2)cc1-c1nn2c(c1Br)CCCC2 in your reply.
stdout: 75

stdin: Answer with reported DIGSA phytotoxicity rating (0-100 scale) of Cn1c(C(F)(F)F)cc(=O)n(-c2cc(Oc3ncccn3)c(Cl)cc2F)c1=S
stdout: 95

stdin: Tell me measured DIGSA phytotoxicity rating (0-100 scale) for N#Cc1c(-c2cc(Oc3ncccn3)c(Cl)cc2F)nn2c1CCCC2 please.
stdout: 0

* * *

# System: barnyardgrass (Echinochloa crus-galli, ECHCG)
# Test protocol: Post-emerge greenhouse herbicide activity screening, phytotoxicity rating
# Format: in vivo
# Measurement setup: 250 g ai/ha, 14 days after application
Quantity: ECHCG phytotoxicity rating (0-100 scale)
// keep it numeric: no unit symbol after the value

- Structure as smiles: "Cn1c(C(F)(F)F)cc(=O)n(-c2cc(Oc3ccccc3N)c(Cl)cc2F)c1=S"
  ECHCG phytotoxicity rating (0-100 scale): 0
- Structure as smiles: "Cn1c(=S)n(C)c(=O)n(-c2cc(Oc3ncccn3)c(Cl)cc2F)c1=O"
  ECHCG phytotoxicity rating (0-100 scale): 80
- Structure as smiles: "Cn1c(C(F)(F)F)cc(=O)n(-c2cc(Oc3ccccc3O)c(C#N)cc2F)c1=S"
  ECHCG phytotoxicity rating (0-100 scale): 80
- Structure as smiles: "Cn1c(C(F)(F)F)cc(=O)n(-c2cc(Oc3ccccc3)c(C#N)cc2F)c1=S"
  ECHCG phytotoxicity rating (0-100 scale): 25
- Structure as smiles: "Fc1cc(Cl)c(Oc2ncccn2)cc1-c1nn2c(c1Br)CCCC2"
  ECHCG phytotoxicity rating (0-100 scale): 95

Let's switch to this compound now.
stdin: Tell me measured ECHCG phytotoxicity rating (0-100 scale) for COc1ccccc1Oc1cc(-n2c(=O)cc(C(F)(F)F)n(C)c2=S)c(F)cc1C#N please.
stdout: 65

* * *

# Test system: upland rice (Oryza sp., var.Tebonnet, RICE)
# Test protocol: Pre-emerge greenhouse screening, crop safety (phytotoxicity rating)
# Type: in vivo
# Measurement setup: 250 g ai/ha, 14 days after application
Outcome: Yes for RICE crop damage, phytotoxicity rating (0-100 scale) of at least 60; No for anything lower.

Study these solved cases before continuing.
- Structure as smiles: "Cn1c(C(F)(F)F)cc(=O)n(-c2cc(Oc3ccccc3[N+](=O)[O-])c(Cl)cc2F)c1=S"
  Class label: "No"
- Structure as smiles: "Cn1c(=S)n(C)c(=O)n(-c2cc(Oc3ccccc3[N+](=O)[O-])c(Cl)cc2F)c1=O"
  Class label: "No"
- Structure as smiles: "Fc1cc(Cl)c(Oc2ncccn2)cc1-c1nn2c(c1Cl)CCCC2"
  Class label: "Yes"
- Structure as smiles: "Cn1c(C(F)(F)F)cc(=O)n(-c2cc(Oc3ccccc3)c(Cl)cc2F)c1=S"
  Class label: "No"
- Structure as smiles: "Cn1c(C(F)(F)F)cc(=O)n(-c2cc(Oc3ncccc3[N+](=O)[O-])c(Cl)cc2F)c1=S"
  Class label: "No"
- Structure as smiles: "Fc1cc(Cl)c(Oc2ncccn2)cc1-c1nn2c(c1Br)CCCC2"
  Class label: "Yes"

Could you now look at the following compound, please?
stdin: Reported RICE crop damage, phytotoxicity rating (0-100 scale) at or above 60? Cn1c(=S)n(C)c(=O)n(-c2cc(Oc3ncccn3)c(Cl)cc2F)c1=O
stdout: Yes
